Origin of the recorded values: patent US20240174618A1

# Tested on: Alopecurus myosuroides (ALOMY)
# Assay details: C. Herbicidal pre-emergence efficacy, ALOMY
# Format: in vivo
# Measurement context: 80 g/ha, scored after about 3 weeks
Entries and their Pre-emergence efficacy against ALOMY values follow.
Only the number, expressed in %, is required.

Previously resolved entries follow.
1) O=S(=O)(CCCC(F)(F)F)Oc1c(F)cccc1Oc1ncc(F)cn1 = 100
2) O=S(=O)(CCC(F)(F)F)Oc1c(F)cccc1Oc1ncc(F)cn1 = 100
3) O=S(=O)(CC1CC1)Oc1ccccc1Oc1ncc(Cl)cn1 = 80
4) O=S(=O)(CCCCl)Oc1ccccc1Oc1ncc(F)cn1 = 90
5) O=S(=O)(CCCC(F)(F)F)Oc1c(F)cccc1Oc1ncc(Cl)cn1 = 100
6) CCCCS(=O)(=O)Oc1ccccc1Oc1ncc(Cl)cn1 = 80

Query: Lab request: please report Pre-emergence efficacy against ALOMY under test system Alopecurus myosuroides (ALOMY) for O=S(=O)(CCC(F)(F)F)Oc1ccccc1Oc1ncc(Cl)cn1
Reply: 90

Query: Lab request: please report Pre-emergence efficacy against ALOMY under test system Alopecurus myosuroides (ALOMY) for CC(C)CS(=O)(=O)Oc1ccccc1Oc1ncc(Cl)cn1
Reply: 90

Query: Lab request: please report Pre-emergence efficacy against ALOMY under test system Alopecurus myosuroides (ALOMY) for O=S(=O)(CCCC(F)(F)F)Oc1ccccc1Oc1ncc(Cl)cn1
Reply: 100

Query: Lab request: please report Pre-emergence efficacy against ALOMY under test system Alopecurus myosuroides (ALOMY) for O=S(=O)(CCC(F)(F)F)Oc1c(F)cccc1Oc1ncc(Cl)cn1
Reply: 100

Query: Lab request: please report Pre-emergence efficacy against ALOMY under test system Alopecurus myosuroides (ALOMY) for O=S(=O)(CCCC(F)F)Oc1c(F)cccc1Oc1ncc(Cl)cn1
Reply: 100

Query: Lab request: please report Pre-emergence efficacy against ALOMY under test system Alopecurus myosuroides (ALOMY) for O=S(=O)(CCCCl)Oc1ccccc1Oc1ncc(Cl)cn1
Reply: 90

Query: Lab request: please report Pre-emergence efficacy against ALOMY under test system Alopecurus myosuroides (ALOMY) for O=S(=O)(CC1CC(F)(F)C1)Oc1c(F)cccc1Oc1ncc(Cl)cn1
Reply: 90

Query: Lab request: please report Pre-emergence efficacy against ALOMY under test system Alopecurus myosuroides (ALOMY) for O=S(=O)(CCCCl)Oc1c(F)cccc1Oc1ncc(Cl)cn1
Reply: 90

----------
# Test system: Kochia scoparia (KCHSC)
# Assay details: A. Herbicidal pre-emergence efficacy, KCHSC
# Type: in vivo
# Measurement context: pre-emergence, dosage 320 g/ha
Test readout: Pre-emergence efficacy against KCHSC (%)
Only the number, expressed in %, is required.

Previously resolved entries follow.
1. O=S(=O)(CCC(F)=C(F)F)Oc1c(Cl)cccc1Oc1ncc(Cl)cn1 = 90
2. O=S(=O)(CCC(F)(F)F)Oc1c(Cl)cccc1Oc1ncc(Br)cn1 = 90
3. O=S(=O)(CCC(F)(F)F)Oc1c(F)cccc1Oc1ncc(F)cn1 = 100

Query: Record request: Pre-emergence efficacy against KCHSC value, item COCCS(=O)(=O)Oc1ccccc1Oc1ncc(Cl)cn1
Reply: 90

Query: Record request: Pre-emergence efficacy against KCHSC value, item O=S(=O)(CCCC(F)(F)F)Oc1c(F)cccc1Oc1ncc(Cl)cn1
Reply: 100
